protocol_text: chemical genetic growth profiling, strain panel (AID 1159580);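 further: tested at 20 µM; growth read once vehicle control cultures reached saturation at 30 °C; 1 = growth at the plate median or of vehicle wells; lower values mean less growth of the strain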
stated_conditions: S. cerevisiae deletion strains, growth OD, locus YJL187C, strain SWE1, hits give low values
In all, about 5,500 compounds went through this assay and about 2,000 (36%) were called active. Inconclusive results (about 18%) are left out. The list shows a part of the results.
The threshold is 1. Values of normalized growth beneath it are tagged condition met; values meeting or exceeding it are tagged condition not met.

Worked examples, 5 compounds total:
{"compound": "O=C(O)c1cc(=O)c2cccc(O)c2[nH]1", "class_label": "condition not met"}
{"compound": "CC1(C)C(=O)[C@@H]2C[C@@]3(O)C4=CC(=O)O[C@@H](c5ccoc5)[C@]4(C)CCC3[C@@](C)(C2=O)[C@H]1CC(=O)O (some centres undefined)", "class_label": "condition not met"}
{"compound": "CNS(=O)(=O)Cc1ccc2[nH]cc(CCN(C)C)c2c1", "class_label": "condition not met"}
{"compound": "CC(=O)c1cc2cc(Br)ccc2oc1=O", "class_label": "condition met"}
{"compound": "Cc1[nH]n(C)c(=O)c1N=Nc1ccc(Cl)cc1", "class_label": "condition met"}

# ---- query compound ----
[in] Does the reported normalized growth of "CCOc1cccc(C(=O)c2ccc(O)c(O)c2O)c1" stay below 1?
[out] condition met

---

protocol_text: chemical genetic growth profiling, strain panel (AID 1159580);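 further: tested at 20 µM; growth read once vehicle control cultures reached saturation at 30 °C; 1 = growth at the plate median or of vehicle wells; lower values mean less growth of the strain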
stated_conditions: S. cerevisiae deletion strains, growth OD, locus YMR307W, strain GAS1, hits give low values
The campaign covered roughly 5,500 compounds. About 2,000 (36%) were called active. Roughly 18% stayed inconclusive and do not appear here. This is one part of the list.
Items are presented alongside their recorded normalized growth.
Please reply with the number alone, leaving off any unit.

{"smiles_repr": "COc1ccc(C(=O)O)c(O)c1OC", "normalized growth": 1.22}
{"smiles_repr": "O=C(OC[C@H]1O[C@H](OC(=O)c2cc(O)c(O)c(OC(=O)c3cc(O)c(O)c(O)c3)c2)[C@H](OC(=O)c2cc(O)c(O)c(OC(=O)c3cc(O)c(O)c(O)c3)c2)[C@@H](OC(=O)c2cc(O)c(O)c(OC(=O)c3cc(O)c(O)c(O)c3)c2)[C@@H]1OC(=O)c1cc(O)c(O)c(OC(=O)c2cc(O)c(O)c(O)c2)c1)c1cc(O)c(O)c(OC(=O)c2cc(O)c(O)c(O)c2)c1", "normalized growth": 0.175}
{"smiles_repr": "CC(C)(C)c1cc(-c2cc(C(F)(F)F)[nH]n2)c2c(c1)C(C)(C)CC2", "normalized growth": 0.998}
{"smiles_repr": "CC(=O)Oc1cccc2c1C(=O)c1c(OC(C)=O)cc(C(=O)O)cc1C2=O", "normalized growth": 1.18}
{"smiles_repr": "O=c1oc2c(O)c(O)cc3c(=O)oc4c(O)c(O)cc1c4c23", "normalized growth": 0.731}

Entry "CCOc1ccc(C(=O)c2cc(O)c(OC)c(OC)c2O)cc1" , normalized growth reported as 0.929

Entry "CN1CCN(CCC=C2c3ccccc3Sc3ccc(S(=O)(=O)N(C)C)cc32)CC1" , normalized growth reported as 1.07

Entry "CCOc1ccc(C(=O)c2ccc(O)c(O)c2O)cc1" , normalized growth reported as 0.787

---

Items are presented alongside their recorded normalized growth.
protocol_text: chemical genetic growth profiling, strain panel (AID 1159580);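 further: tested at 20 µM; growth read once vehicle control cultures reached saturation at 30 °C; 1 = growth at the plate median or of vehicle wells; lower values mean less growth of the strain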
stated_conditions: S. cerevisiae deletion strains, growth OD, locus YLR258W, strain gsy2, hits give low values
About 2,000 (36%) of roughly 5,500 compounds were called active. Not shown: some 18% with an inconclusive outcome. Some of the results follow.

Before answering, review these 8 worked examples.
{"molecule": "CC(=O)OCC1=C(C(=O)O)N2C(=O)[C@@H](NC(=O)CCCC(N)C(=O)O)C2SC1 (some centres not stated)", "property_label": "normalized growth", "result_value": "1.02 (inactive)"}
{"molecule": "Cc1cc(C(C)(C)C)cc(C)c1CC1=NCCN1", "property_label": "normalized growth", "result_value": "1 (inactive)"}
{"molecule": "CCC1(CC)C(=O)C=CNC1=O", "property_label": "normalized growth", "result_value": "1.01 (inactive)"}
{"molecule": "CC(=O)Oc1cc2c(c(C)c1OC(C)=O)CC1OC13C2(C)CCC1(C)C2CC(C)(C(=O)O)CCC2(C)CCC13C (configuration not stated)", "property_label": "normalized growth", "result_value": "1.02 (inactive)"}
{"molecule": "COc1cc(NS(=O)(=O)c2ccc(N)cc2)ncn1", "property_label": "normalized growth", "result_value": "0.979 (inactive)"}
{"molecule": "CC1=CC2C(C(C)C)CCC(C)(O)C2CC1 (configuration not stated)", "property_label": "normalized growth", "result_value": "0.971 (inactive)"}
{"molecule": "CC(=O)Oc1ccccc1C(=O)O", "property_label": "normalized growth", "result_value": "0.997 (inactive)"}
{"molecule": "CO[C@H]1C[C@H](O[C@H]2[C@H](C)[C@@H](OC3O[C@H](C)C[C@H](N(C)C)[C@H]3OC(C)=O)[C@@H](C)C[C@]3(CO3)C(=O)[C@H](C)[C@@H](OC(C)=O)[C@@H](C)[C@@H](C)OC(=O)[C@@H]2C)O[C@@H](C)[C@@H]1OC(C)=O (some centres not stated)", "property_label": "normalized growth", "result_value": "0.997 (inactive)"}

Entry "NC(=O)N1c2ccccc2C=Cc2ccccc21" , normalized growth reported as 1.02 (inactive)

Entry "O=C(CCBr)N1CCN(C(=O)CCBr)CC1" , normalized growth reported as 1.02 (inactive)

Entry "Cc1cc(=O)n(-c2ccccc2)n1C" , normalized growth reported as 1.07 (inactive)

Entry "Cc1cc(C(C)(C)C)c(O)c(C)c1CC1=NCCN1" , normalized growth reported as 1 (inactive)
